Tested on: MCF-7 cells
test: MCF-7 cell proliferation (CellTiter-Glo cell viability)
Assay type: cell-based, human
assay.context: Homo sapiens, MCF7; 48 hours of treatment; read-out: concentration inhibiting proliferation of MCF-7 cells by 50%
pIC50: −log10 of the molar value.
measured.quantity: pIC50

{"columns": ["compound", "result.value"],
 "data": [
  ["CC(=O)OC1C(C)CC(Oc2c(-c3ccc(O)cc3)oc3cc(O)cc(O)c3c2=O)C(O)C1OC(C)=O (centres unmarked)", "~4.52"],
  ["CCCC1OC(Oc2c(-c3ccc(O)cc3)oc3cc(O)cc(O)c3c2=O)C(O)C(OC(C)=O)C1OC(C)=O (centres unmarked)", "~4.52"]
]}

====

This document collects IC50 values reported for RSK2 (Homo sapiens, UniProt P51812).

{"columns": ["compound", "IC50"],
 "data": [
  ["CC(=O)OC1C(C)OC(Oc2c(-c3ccc(O)cc3)oc3cc(O)cc(O)c3c2=O)C(O)C1O (centres unmarked)", "~140 nM"],
  ["CC(=O)OC1C(C)OC(Oc2c(-c3ccc(O)cc3)oc3cc(O)cc(O)c3c2=O)C(OC(C)=O)C1O (centres unmarked)", "~260 nM"]
]}
